B1: CPEB3 Ribozyme (parent)
chain: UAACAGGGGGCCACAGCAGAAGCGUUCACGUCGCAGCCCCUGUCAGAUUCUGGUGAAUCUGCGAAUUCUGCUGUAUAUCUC

variants of: B1; assay: self-cleavage, relative activity (ratio to wild type); higher = more cleavage; in vitro, sequencing
self-cleavage below 0.2 gives 0.0; self-cleavage at or above it gives 1.0.

// below: answered variants
U41G U80C ... 1.0
A13G A45C ... 1.0
U26A U41A ... 1.0
G24A U60C ... 1.0

Here is the next item to consider.
Does C32A G70U have a reported self-cleavage of at least 0.2?
0.0

Source: the RNAGym collection of RNA variant scans (doi:10.1093/nar/gkz1192)
